Hello, the source for this data is paper PMC11680386, in case you need it.

assayNotes: MTT cytotoxicity assay
Format: cell-based, African green monkeys
testContext: African green monkey, Vero E6 cells
Listing: CC50 at 96 h of selected compounds
measuredParameter: CC50 at 96 h

1) COC(=O)CCCCCCNC(=O)C1OC(OC2C(OC3CCC4(C)C(CCC5(C)C4C(=O)C=C4C6CC(C)(C(=O)O)CCC6(C)CCC45C)C3(C)C)OC(C(=O)NCCCCCCC(=O)OC)C(O)C2O)C(O)C(O)C1O (stereo not drawn) : > 100 µM
2) COC(=O)CCC(NC(=O)C1OC(OC2C(OC3CCC4(C)C(CCC5(C)C4C(=O)C=C4C6CC(C)(C(=O)O)CCC6(C)CCC45C)C3(C)C)OC(C(=O)NC(CCC(=O)OC)C(=O)OC)C(O)C2O)C(O)C(O)C1O)C(=O)OC (stereo not drawn) : > 100 µM
3) CCOC(=O)CCNC(=O)C1OC(OC2C(OC3CCC4(C)C(CCC5(C)C4C(=O)C=C4C6CC(C)(C(=O)O)CCC6(C)CCC45C)C3(C)C)OC(C(=O)NCCC(=O)OCC)C(O)C2O)C(O)C(O)C1O (stereo not drawn) : > 100 µM
